# System: DU-145 prostate
# procedure_details: NCI-60 one-dose screen, 48 h (100 = growth as untreated, 0 = no growth, -100 = all killed)
# run_parameters: 10 µM unless noted
The panel holds about 83,000 compounds, 20% with a hit somewhere; the sample as a whole holds those more often.
Output t for growth not less than 20%; output f otherwise.

compound | label_value
COc1cc(-c2noc(C[C@@H](NC(=O)OCc3ccccc3)C(C)C)n2)cc(OC)c1OC | t
CS(=O)c1nccc(-c2c(-c3ccc(F)c(OCCc4ccccc4)c3)nc3sccn23)n1 (centres undefined) | f
c1ccc(-c2c(-c3ccccc3)[n+](Cc3ccc4ccccc4c3)c(-c3ccccc3)n2Cc2ccc3ccccc3c2)cc1 | f
CC[C@]12C=CCN3CC[C@]4(C(=C(C(=O)OC)C1)Nc1cc5c(cc14)[C@@H]1[C@H](O5)[C@@H](O)[C@@]4(CC)CC(C(=O)OC)=C5Nc6cc(OC)ccc6[C@@]56CCN1[C@@H]46)[C@@H]32 | t
NS(=O)(=O)c1ccc(Nc2nc(N/N=C/c3ccc([N+](=O)[O-])cc3)nc(Nc3ccccc3)n2)cc1 | t
CS(=O)(=O)c1nccc(-c2c(-c3ccc(F)c(OCCc4ccccc4)c3)nc3sccn23)n1 | f
O=C(NNc1nc2cc(F)cc(F)c2n2cccc12)c1ccncn1 | f
COc1ccc(NC(=O)[C@H](C)NC(=O)OC(C)(C)C)cc1C(=O)Nc1cccc(-c2cc(=O)c3c(OC)c(OC)c(OC)cc3o2)c1 | t
O=C(CCCCCCN1CC(=O)N2[C@@H](c3cccc(Cl)c3)c3[nH]c4ccccc4c3C[C@H]2C1=O)NO | t
